Test: Serum stability in rat serum at 37° C.
Format: in vitro ADME
Settings: mono-exponential fit
measurement.label: Serum τ1/2 (h) rat
Answer with a number only, understood to be in h.

Query: Name the reported Serum τ1/2 (h) rat value associated with the molecule C124A/G229E: RLuc mutant C124A/G229E (protein) MASKVYDPEQRKRMITGPQWWARCKQMNVLDSFINYYDSEKHAENAVIFLHGNAASSYLWRHVVPHIEPVARCIIPDLIGMGKSGKSGNGSYRLLDHYKYLTAWFELLNLPKKIIFVGHDWGAALAFHYSYEHQDKIKAIVHAESVVDVIESWDEWPDIEEDIALIKSEEGEKMVLENNFFVETMLPSKIMRKLEPEEFAAYLEPFKEKGEVRRPTLSWPREIPLVKGEKPDVVQIVRNYNAYLRASDDLPKMFIESDPGFFSNAIVEGAKKFPNTEFVKVKGLHFSQEDAPDEMGKYIKSFVERVLKNEQ
Result: 1.8

Query: Value lookup for Serum τ1/2 (h) rat; key = A54P/A55T/C124A: RLuc mutant A54P/A55T/C124A (protein) MASKVYDPEQRKRMITGPQWWARCKQMNVLDSFINYYDSEKHAENAVIFLHGNPTSSYLWRHVVPHIEPVARCIIPDLIGMGKSGKSGNGSYRLLDHYKYLTAWFELLNLPKKIIFVGHDWGAALAFHYSYEHQDKIKAIVHAESVVDVIESWDEWPDIEEDIALIKSEEGEKMVLENNFFVETMLPSKIMRKLEPEEFAAYLEPFKEKGEVRRPTLSWPREIPLVKGGKPDVVQIVRNYNAYLRASDDLPKMFIESDPGFFSNAIVEGAKKFPNTEFVKVKGLHFSQEDAPDEMGKYIKSFVERVLKNEQ
Result: 129

Query: Looking for the measured Serum τ1/2 (h) rat of C124A/S130A: RLuc mutant C124A/S130A (protein) MASKVYDPEQRKRMITGPQWWARCKQMNVLDSFINYYDSEKHAENAVIFLHGNAASSYLWRHVVPHIEPVARCIIPDLIGMGKSGKSGNGSYRLLDHYKYLTAWFELLNLPKKIIFVGHDWGAALAFHYAYEHQDKIKAIVHAESVVDVIESWDEWPDIEEDIALIKSEEGEKMVLENNFFVETMLPSKIMRKLEPEEFAAYLEPFKEKGEVRRPTLSWPREIPLVKGGKPDVVQIVRNYNAYLRASDDLPKMFIESDPGFFSNAIVEGAKKFPNTEFVKVKGLHFSQEDAPDEMGKYIKSFVERVLKNEQ , can you help?
Result: 14

Query: Requested read-out: Serum τ1/2 (h) rat. Entry: C124A/M295I: RLuc mutant C124A/M295I (protein) MASKVYDPEQRKRMITGPQWWARCKQMNVLDSFINYYDSEKHAENAVIFLHGNAASSYLWRHVVPHIEPVARCIIPDLIGMGKSGKSGNGSYRLLDHYKYLTAWFELLNLPKKIIFVGHDWGAALAFHYSYEHQDKIKAIVHAESVVDVIESWDEWPDIEEDIALIKSEEGEKMVLENNFFVETMLPSKIMRKLEPEEFAAYLEPFKEKGEVRRPTLSWPREIPLVKGGKPDVVQIVRNYNAYLRASDDLPKMFIESDPGFFSNAIVEGAKKFPNTEFVKVKGLHFSQEDAPDEIGKYIKSFVERVLKNEQ
Result: 4.9

Where do these numbers come from? They come from patent US7842469B2.
